Tested on: MCF7
Test: Cytotoxicity in human MCF7 cells assessed as reduction in cell viability incubated for 72 hrs by calcein AM cytotoxicity assay
Format: functional, cell-based
Conditions: Homo sapiens, MCF7, 72 h
pIC50: −log10 of the molar value.
PARAMETER: pIC50

- CC(=O)O[C@H]1CC[C@]2(C)[C@H]3CC[C@@H]4C5=C(C(C)C)C(=O)C[C@]5(C(=O)OCCN5CCCC5)CC[C@@]4(C)[C@]3(C)CC[C@H]2C1(C)C: 5.14
- C=C(C=O)[C@@H]1CC[C@]2(C(=O)OCCN3CCOCC3)CC[C@]3(C)[C@H](CC[C@@H]4[C@@]5(C)CC[C@H](O)C(C)(C)[C@@H]5CC[C@]43C)[C@@H]12: 5.66

----------
Tested on: BJ
Experiment: Cytotoxicity in human BJ cells assessed as reduction in cell viability incubated for 72 hrs by calcein AM cytotoxicity assay
Format: functional, cell-based
Conditions: Homo sapiens, BJ, 72 h
Recorded IC50 for the following compounds
PARAMETER: IC50

• COCCOCCOC(=O)[C@@]12CC[C@]3(C)[C@H](CC[C@@H]4[C@@]5(C)CC[C@H](OC(C)=O)C(C)(C)[C@@H]5CC[C@]43C)C1=C(C(C)C)C(=O)C2 = > 50 µM
• CC(=O)O[C@H]1CC[C@]2(C)[C@H]3CC[C@@H]4C5=C(C(C)C)C(=O)C(=O)[C@]5(C(=O)OCCN5CCOCC5)CC[C@@]4(C)[C@]3(C)CC[C@H]2C1(C)C = 25.3 µM
• CC(C)[C@@H]1CC[C@]2(C(=O)O[C@@H]3O[C@H](CO)[C@H](O)[C@H](O)[C@H]3O)CC[C@]3(C)[C@H](CC[C@@H]4[C@@]5(C)CC[C@H](O)C(C)(C)[C@@H]5CC[C@]43C)[C@@H]12 = > 50 µM

----------
# pIC50 per entry
System: CCRF-CEM
Assay: Cytotoxicity in human CEM cells assessed as reduction in cell viability incubated for 72 hrs by calcein AM cytotoxicity assay
Type: functional, cell-based
Details: ccrf-cem
pIC50: −log10 of the molar value.
PARAMETER: pIC50

- CC(=O)O[C@H]1CC[C@]2(C)[C@H]3CC[C@@H]4C5=C(C(C)C)C(=O)C[C@]5(C(=O)OCCN5CCCCC5)CC[C@@]4(C)[C@]3(C)CC[C@H]2C1(C)C: 4.79
- C=C(C)[C@@H]1CC[C@]2(C(=O)OCCN3CCCCC3)CC[C@]3(C)[C@H](CC[C@@H]4[C@@]5(C)CC[C@H](O)C(C)(C)[C@@H]5CC[C@]43C)[C@@H]12: 4.58
- CC(C)[C@@H]1CC[C@]2(C(=O)OCCN3CCCCC3)CC[C@]3(C)[C@H](CC[C@@H]4[C@@]5(C)CC[C@H](O)C(C)(C)[C@@H]5CC[C@]43C)[C@@H]12: 4.71

----------
// pIC50 lookup, one value per entry
System: HeLa
Test: Cytotoxicity in human HeLa cells assessed as reduction in cell viability incubated for 72 hrs by calcein AM cytotoxicity assay
Format: functional, cell-based
Settings: hela
pIC50: −log10 of the molar value.
PARAMETER: pIC50

- CC(=O)O[C@H]1CC[C@]2(C)[C@H]3CC[C@@H]4C5=C(C(C)C)C(=O)C[C@]5(C(=O)OCCN5CCCCC5)CC[C@@]4(C)[C@]3(C)CC[C@H]2C1(C)C: 5.04
- C=C(C)[C@@H]1CC[C@]2(C(=O)OCCN3CCCCC3)CC[C@]3(C)[C@H](CC[C@@H]4[C@@]5(C)CC[C@H](O)C(C)(C)[C@@H]5CC[C@]43C)[C@@H]12: 4.61
